System: ATP;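 further: ATP exposure 15 min at 22 °C before imaging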
experiment description: switch fluorescence ratio, 500 uM ATP over buffer (Cy3 cluster intensity, sum of 5 cycles each) (fold (ratio)); higher = stronger signal-on switching upon ATP binding; sequences stand for … in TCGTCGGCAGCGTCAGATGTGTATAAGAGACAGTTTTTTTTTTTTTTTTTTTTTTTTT…TC
stated conditions: aptamer strand: ATP DNA aptamer (quencher-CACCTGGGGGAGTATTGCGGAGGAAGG + anchor), 100 nM annealed; ATP concentration: 500 uM
quantity: switch fluorescence ratio
Simply state the number, no unit and no words.

According to the records, this sequence TATCATTTTG displays switch fluorescence ratio of 0.986

According to the records, this sequence GGGGGTTTTG displays switch fluorescence ratio of 0.993

According to the records, this sequence GCCCCCAGCG displays switch fluorescence ratio of 4.61

According to the records, this sequence CGTTGCGCGT displays switch fluorescence ratio of 0.993

According to the records, this sequence ACATTCTGGA displays switch fluorescence ratio of 0.988

According to the records, this sequence TCCGTTGGTG displays switch fluorescence ratio of 1.01

According to the records, this sequence TCTTGGGTAT displays switch fluorescence ratio of 0.986

According to the records, this sequence TGCATAACGT displays switch fluorescence ratio of 1.02

According to the records, this sequence GGGGGGCAAC displays switch fluorescence ratio of 1.03

According to the records, this sequence TGGGGAGCTT displays switch fluorescence ratio of 0.99

According to the records, this sequence TAAGGGGAAG displays switch fluorescence ratio of 1.04

According to the records, this sequence AGGACGATGG displays switch fluorescence ratio of 1.1

According to the records, this sequence TTGAGCGGGT displays switch fluorescence ratio of 1.11

According to the records, this sequence CCAGTTTTTT displays switch fluorescence ratio of 1

According to the records, this sequence GACCTTTTTC displays switch fluorescence ratio of 1.03

According to the records, this sequence ATTGTTTGAG displays switch fluorescence ratio of 0.982

According to the records, this sequence TACTTAGGTT displays switch fluorescence ratio of 0.98
